Data provenance: PubChem BioAssay

Tested Target: Tumor necrosis factor receptor superfamily member 10B (Homo sapiens) (UniProt O14763)
Sequence (O14763 whole entry, looked up): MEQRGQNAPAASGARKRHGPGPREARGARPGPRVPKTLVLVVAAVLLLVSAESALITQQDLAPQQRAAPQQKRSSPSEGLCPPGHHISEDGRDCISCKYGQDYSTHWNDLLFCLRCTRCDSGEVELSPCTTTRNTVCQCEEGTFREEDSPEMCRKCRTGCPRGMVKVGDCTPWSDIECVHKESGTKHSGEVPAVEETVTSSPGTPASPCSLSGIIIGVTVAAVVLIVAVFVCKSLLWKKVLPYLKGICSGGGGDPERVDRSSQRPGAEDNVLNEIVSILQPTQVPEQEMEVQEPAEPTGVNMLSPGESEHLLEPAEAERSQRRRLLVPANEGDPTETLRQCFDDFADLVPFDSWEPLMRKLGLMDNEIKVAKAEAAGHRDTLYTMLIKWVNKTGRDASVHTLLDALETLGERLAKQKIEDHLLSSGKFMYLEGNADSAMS
Protocol Description: caspase-8 TRAIL sensitization, hit retest, confirmation, cell-based, NB7+caspase-8, with/without TRAIL, luminescence panel (AID 651596)
Experimental Parameters: NB7 neuroblastoma + caspase-8, TRAIL sensitization, luminescence viability, with TRAIL, mean of runs, at 10 µM, stronger effect = higher value
The reader will find reported activity values listed item by item below.
Give the quantity in %, number only.

COc1ccc(-c2ccc3sc4ccccc4c(=O)c3c2)cn1 = 63.2
COc1ccc2cc3cc(C(=O)N4CCCCCC4)oc3nc2c1 = 45.1

Prompt line: Give its activity value. Item: O=C(Nc1ccc(F)cc1)c1nc(S(=O)(=O)Cc2ccccc2)ncc1Cl
Response line: 57

Prompt line: Another compound: O=C(Nc1ccc(N2CCOCC2)cc1)c1cnccn1
Response line: 84.4

Prompt line: Another compound: Cc1cccc(Cn2ncc(Cl)c(Cl)c2=O)c1
Response line: 92.2
